test system: 323965-272-R-J2-PDC complex spheroid viability; experiment: Anticancer human tumor 323965-272-R-J2-PDC patient-derived pancreatic carcinoma cell line growth inhibition [CLK]; details: second compound 0.1 µM; first compound 1 µM; hits give low values;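 further: spheroids exposed to agents for seven days before readout; percent of DMSO vehicle control wells so 100% = untreated growth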
Catalogue of viability, T/C readings, one per entry.
Please reply with the bare figure in % and do not write the unit itself.

Below are worked cases with known answers.
[
  {
    "molecule": "O=c1[nH]cc(F)c(=O)[nH]1 + CN1CCN(c2cc(C(=O)Nc3cc4cc(-c5cnn(C)c5)ccc4cn3)ccn2)CC1",
    "property": "viability, T/C",
    "recordedValue": 67.4
  },
  {
    "molecule": "Nc1ccn(C2OC(CO)C(O)C2(F)F)c(=O)n1 (stereo not drawn) + CN1CCN(c2cc(C(=O)Nc3cc4cc(-c5cnn(C)c5)ccc4cn3)ccn2)CC1",
    "property": "viability, T/C",
    "recordedValue": 23
  }
]

Now examine the next entry.
Quick check: viability, T/C of COC1C=CCC(C)C(C)S(=O)(=O)NC(=O)c2ccc3c(c2)N(CC2CCC21)CC1(CCCc2cc(Cl)ccc21)CO3 (stereo not drawn) + CN1CCN(c2cc(C(=O)Nc3cc4cc(-c5cnn(C)c5)ccc4cn3)ccn2)CC1 ? 39.1

The reported measurements were obtained from PubChem BioAssay AID2060619.
